The measurements presented in this section are drawn from ChEMBL document CHEMBL1961873.

- test_target: Serine/threonine-protein kinase 10 (Homo sapiens) (UniProt O94804);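 also: mean percent inhibition of LOK (STK10)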
- Sequence (O94804 whole entry, looked up): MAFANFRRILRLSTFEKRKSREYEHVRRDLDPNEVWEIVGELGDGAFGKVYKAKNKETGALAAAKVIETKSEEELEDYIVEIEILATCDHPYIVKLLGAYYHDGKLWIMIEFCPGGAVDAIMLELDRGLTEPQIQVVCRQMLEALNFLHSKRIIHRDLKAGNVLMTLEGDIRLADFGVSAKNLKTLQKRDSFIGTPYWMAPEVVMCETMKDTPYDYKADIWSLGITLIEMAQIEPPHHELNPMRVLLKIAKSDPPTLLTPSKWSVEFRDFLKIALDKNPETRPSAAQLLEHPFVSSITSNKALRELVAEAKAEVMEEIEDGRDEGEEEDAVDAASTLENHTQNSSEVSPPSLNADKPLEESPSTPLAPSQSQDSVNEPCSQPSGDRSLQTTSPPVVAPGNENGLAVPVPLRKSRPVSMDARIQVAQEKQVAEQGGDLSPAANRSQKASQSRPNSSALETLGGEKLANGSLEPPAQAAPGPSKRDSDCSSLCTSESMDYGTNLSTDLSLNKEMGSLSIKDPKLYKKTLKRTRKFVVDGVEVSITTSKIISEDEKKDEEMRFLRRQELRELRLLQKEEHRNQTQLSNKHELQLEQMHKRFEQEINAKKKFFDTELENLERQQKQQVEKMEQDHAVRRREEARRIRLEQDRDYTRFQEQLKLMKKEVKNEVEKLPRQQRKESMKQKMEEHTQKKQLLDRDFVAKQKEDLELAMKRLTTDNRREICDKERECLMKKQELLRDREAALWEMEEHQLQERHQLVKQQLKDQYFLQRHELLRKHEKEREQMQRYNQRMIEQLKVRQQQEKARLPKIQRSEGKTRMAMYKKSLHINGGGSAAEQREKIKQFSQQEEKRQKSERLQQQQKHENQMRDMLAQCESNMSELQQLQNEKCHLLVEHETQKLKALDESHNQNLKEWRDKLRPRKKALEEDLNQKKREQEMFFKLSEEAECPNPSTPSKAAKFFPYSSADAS
- applied_conditions: at 0.1 µM
Parameter inhibition: see the listing below.
Give a bare numeral; the unit % is implied.

NS(=O)(=O)c1ccc(Nc2cc(-c3ccc(O)c(F)c3)n[nH]2)cc1	-0.42

Lookup: Request the reported inhibition associated with `NC(=O)c1ccc(Oc2nccc(-c3c(-c4ccc(F)cc4)ncn3C3CCNCC3)n2)cc1`
Found: 7.75

Lookup: What would you report for `Cc1ccc(NC(=O)c2ccoc2)cc1-c1ccc(C(=O)NCC2CC2)cc1` ?
Found: 2.73

Lookup: Okay, and `CS(=O)(=O)CCNCc1ccc(-c2ccc3ncnc(Nc4ccc(OCc5ccccc5)c(Br)c4)c3c2)o1` ?
Found: 8.55

Lookup: Proceed to `COc1ccc2ncn(-c3cc(O[C@H](C)c4ccccc4Cl)c(C(N)=O)s3)c2c1`
Found: 20.3

Lookup: Further, for COc1ccc2cc(-c3c(-c4ccncc4)nc(-c4ccc([S+](C)[O-])cc4C)n3C)ccc2c1 (stereo unspecified) ?
Found: 52.4

Lookup: And what about the compound `COC(=O)Nc1nc2ccc(Sc3ccc(NC(=O)Nc4cc(C(F)(F)F)ccc4F)cc3)cc2[nH]1` ?
Found: 18.9

Lookup: Also `O=C(Nc1n[nH]c2nc(-c3ccc(O)cc3)c(Br)cc12)C1CC1` ?
Found: 16.2

Lookup: Try this compound next: `CN(C)CCOc1ccc(-c2cc(-c3ccc4c(c3)CCC4=NO)c(-c3ccncc3)o2)cc1`
Found: 16.8

Lookup: Moving on to the next compound: `C[C@@H](Oc1cc(-n2cnc3ccc(OCC4CCN(C)CC4)cc32)sc1C(N)=O)c1ccccc1Cl`
Found: 63.3

Lookup: // query: `CCc1cccc(CC)c1/C=C/c1cncc(C(=O)NC)c1`
Found: 1.38

Lookup: Param item: `CCN(CC)Cc1ccc(Nc2nccc(-c3cnn4ncccc34)n2)cc1`
Found: 7.37

Lookup: # repeat for `Cc1nnc(-c2ccc(C)c(-c3ccc(C(=O)NCc4ccc(Cl)cc4)cc3)c2)o1`
Found: 2.71

Lookup: For `O=C1Nc2ccccc2/C1=C/Nc1ccc(-n2cncn2)cc1` then?
Found: 4.16

Lookup: Same thing, different compound: `CCc1nccc2c1nc(-c1nonc1N)n2CC`
Found: -0.01

Lookup: For `CNC(=O)c1cncc(/C=C/c2c(C)cccc2C)c1` then?
Found: 1.24

Lookup: Repeat for the following compound: `C#Cc1cccc(Nc2ncnc3ccc(OCCCCNCCS(C)(=O)=O)cc23)c1`
Found: 23.4

Lookup: Also `COc1cc(Nc2ncc(-c3ccccc3)o2)cc(OC)c1OC` , if possible.
Found: 1.37

Lookup: One more compound: `NC(=O)c1cc(-c2ccc(F)cc2)cc(-c2ccncc2)c1N`
Found: 6.15

Lookup: Same question, `Fc1ccc(-c2nc3n(c2-c2ccncc2)CCS3)cc1` this time
Found: 1.88

Lookup: Same again, this time with `CN(C)c1ccc2c(c1)/C(=C/Nc1ccc(S(N)(=O)=O)cc1)C(=O)N2`
Found: 3

---

- test_target: Tyrosine-protein kinase Fes/Fps (Homo sapiens) (UniProt P07332)
- Sequence (P07332 whole entry): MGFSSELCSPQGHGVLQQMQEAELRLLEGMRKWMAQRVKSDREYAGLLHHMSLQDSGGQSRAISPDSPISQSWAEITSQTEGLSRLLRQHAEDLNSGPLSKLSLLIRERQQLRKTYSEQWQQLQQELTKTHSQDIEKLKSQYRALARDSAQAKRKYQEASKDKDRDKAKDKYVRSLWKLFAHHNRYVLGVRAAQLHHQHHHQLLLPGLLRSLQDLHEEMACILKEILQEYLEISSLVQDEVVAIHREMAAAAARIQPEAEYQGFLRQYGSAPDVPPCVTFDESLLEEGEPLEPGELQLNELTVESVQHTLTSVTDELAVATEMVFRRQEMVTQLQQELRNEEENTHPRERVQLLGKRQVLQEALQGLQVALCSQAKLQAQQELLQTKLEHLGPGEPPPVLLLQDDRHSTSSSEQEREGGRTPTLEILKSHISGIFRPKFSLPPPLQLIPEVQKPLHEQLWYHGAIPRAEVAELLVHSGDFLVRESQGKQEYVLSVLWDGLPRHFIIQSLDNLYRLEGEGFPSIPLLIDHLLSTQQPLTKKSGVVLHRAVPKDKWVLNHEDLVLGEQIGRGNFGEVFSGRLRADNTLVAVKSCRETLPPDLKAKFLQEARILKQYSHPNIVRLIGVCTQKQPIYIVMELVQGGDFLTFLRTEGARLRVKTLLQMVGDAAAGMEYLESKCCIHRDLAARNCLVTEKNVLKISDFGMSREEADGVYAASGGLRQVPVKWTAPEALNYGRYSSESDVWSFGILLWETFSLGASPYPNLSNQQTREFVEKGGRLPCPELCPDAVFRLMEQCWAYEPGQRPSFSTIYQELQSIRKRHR
- applied_conditions: at 0.1 µM
- Description: GSK_PKIS: FES mean inhibition at 0.1 uM [Nanosyn]
inhibition listing for selected compounds.
Give the value, in units of %, as a plain number.

COc1cc2ncn(-c3cc(OCc4cccs4)c(C(N)=O)s3)c2cc1OC	1.87
CCN(CC)Cc1ccc(Nc2nccc(-c3cnn4ncccc34)n2)cc1	5.99
C/C(Nc1ccc(S(N)(=O)=O)cc1)=C1/C(=O)Nc2ccccc21	-2.91
CN(C)CCOc1ccc(-c2cc(-c3ccc4c(c3)CCC4=NO)c(-c3ccncc3)o2)cc1	0.22

Lookup: Item under review: `NS(=O)(=O)c1ccc(Nc2cc(-c3ccc(O)c(F)c3)n[nH]2)cc1` . Reported inhibition?
Found: -3.61
